Origin of measurements: ChEMBL document CHEMBL4229497

system: HL-60; test: Antiproliferative activity against human HL60 cells after 48 hrs by MTT assay; assay type: functional, cell-based; details: HL-60, 48 h
Exam item: assign MET to entries whose IC50 is below 5 µM and NOT MET to entries at or above 5 µM. Note that a value of exactly 5 µM receives NOT MET.

[[record]]
input_smiles = "COc1ccc(-c2ccc3oc4ccc(=O)n(-c5ccc(NC(=O)CN6CCN(C)CC6)cc5)c4c3c2)cn1"
label = "MET"

[[record]]
input_smiles = "COc1ccc(-c2ccc3oc4ccc(=O)n(-c5ccc(NC(=O)CN6CCCC6)cc5)c4c3c2)cn1"
label = "NOT MET"

[[record]]
input_smiles = "COc1ccc(-c2ccc3oc4ccc(=O)n(-c5ccc(NC(=O)CN6CCNCC6)cc5)c4c3c2)cn1"
label = "NOT MET"

[[record]]
input_smiles = "C=CC(=O)Nc1ccc(-n2c(=O)ccc3oc4ccc(-c5cccc(N)c5)cc4c32)cc1"
label = "NOT MET"

[[record]]
input_smiles = "C=CC(=O)Nc1ccc(-n2c(=O)ccc3oc4ccc(-c5cccnc5)cc4c32)cc1"
label = "MET"

[[record]]
input_smiles = "C=CC(=O)Nc1ccc(-n2c(=O)ccc3oc4ccc(-c5cccc6[nH]ccc56)cc4c32)cc1"
label = "NOT MET"

[[record]]
input_smiles = "C=CC(=O)Nc1ccc(-n2c(=O)ccc3oc4ccc(-c5ccc(OC)nc5)cc4c32)cc1"
label = "NOT MET"

[[record]]
input_smiles = "C=CC(=O)Nc1ccc(-n2c(=O)ccc3oc4ccc(-c5ccc(O)cc5)cc4c32)cc1"
label = "MET"

[[record]]
input_smiles = "C=CC(=O)N1CCC[C@@H](n2nc(-c3ccc(Oc4ccccc4)cc3)c3c(N)ncnc32)C1"
label = "NOT MET"


* * *

molecular target: Serine/threonine-protein kinase mTOR (Homo sapiens, UniProt P42345); test: Inhibition of recombinant human N-terminal FLAG-tagged mTOR (1362-end residues)
pIC50: −log10 of the molar value.
Observed property: pIC50

[[record]]
input_smiles = "C=CC(=O)Nc1ccc(-n2c(=O)ccc3oc4ccc(-c5cccnc5)cc4c32)cc1"
val = 6.64


* * *

biological target: Phosphatidylinositol 4,5-bisphosphate 3-kinase catalytic subunit beta isoform (Homo sapiens); experiment: Inhibition of PI3Kbeta (unknown origin)
Sequence (P42338 whole entry, canonical isoform): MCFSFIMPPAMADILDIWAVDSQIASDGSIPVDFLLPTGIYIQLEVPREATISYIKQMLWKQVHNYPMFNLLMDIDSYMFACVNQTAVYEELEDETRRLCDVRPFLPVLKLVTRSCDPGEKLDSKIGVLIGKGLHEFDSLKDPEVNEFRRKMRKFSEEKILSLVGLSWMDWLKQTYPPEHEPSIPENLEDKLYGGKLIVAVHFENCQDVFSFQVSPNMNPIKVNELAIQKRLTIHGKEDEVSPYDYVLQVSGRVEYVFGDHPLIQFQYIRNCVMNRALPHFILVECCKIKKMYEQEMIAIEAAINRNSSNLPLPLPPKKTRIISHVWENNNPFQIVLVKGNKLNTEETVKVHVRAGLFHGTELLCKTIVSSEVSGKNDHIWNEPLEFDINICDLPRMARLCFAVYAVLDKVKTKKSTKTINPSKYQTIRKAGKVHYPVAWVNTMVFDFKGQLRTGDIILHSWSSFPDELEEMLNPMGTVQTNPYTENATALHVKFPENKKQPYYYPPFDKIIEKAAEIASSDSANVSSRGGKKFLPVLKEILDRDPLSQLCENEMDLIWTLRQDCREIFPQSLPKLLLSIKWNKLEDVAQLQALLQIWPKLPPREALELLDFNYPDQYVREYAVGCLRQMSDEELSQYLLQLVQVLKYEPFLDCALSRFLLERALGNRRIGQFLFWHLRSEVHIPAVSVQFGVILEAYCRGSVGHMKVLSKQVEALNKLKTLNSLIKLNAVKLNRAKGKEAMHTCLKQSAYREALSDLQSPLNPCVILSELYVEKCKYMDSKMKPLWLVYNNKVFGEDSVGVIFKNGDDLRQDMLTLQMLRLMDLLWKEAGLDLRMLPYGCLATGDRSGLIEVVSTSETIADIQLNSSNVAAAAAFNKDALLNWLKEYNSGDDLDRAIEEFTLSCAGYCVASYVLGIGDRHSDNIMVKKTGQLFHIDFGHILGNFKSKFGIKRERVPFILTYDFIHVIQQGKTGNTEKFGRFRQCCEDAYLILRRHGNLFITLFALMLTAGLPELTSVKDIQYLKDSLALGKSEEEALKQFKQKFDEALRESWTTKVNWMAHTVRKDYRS
pIC50: −log10 of the molar value.
Observed property: pIC50

[[record]]
compound = "COc1ccc(-c2ccc3ncc4c(c3c2)n(-c2ccc(N3CCNCC3)c(C(F)(F)F)c2)c(=O)n4C)cn1 [BGT-226 FREE BASE]"
val = 7.20


* * *

test system: HL-60; experiment: Antiproliferative activity against human HL60 cells after 48 hrs by MTT assay; format: functional, cell-based; conditions: HL-60, 48 h
Entries whose IC50 is below 4 µM take class 1; entries at or above 4 µM take class 0.

[[record]]
compound = "CNCC(=O)Nc1ccc(-n2c(=O)ccc3oc4ccc(-c5ccc(OC)nc5)cc4c32)cc1"
test_target = "HL-60"
label = "class 1"

[[record]]
compound = "Cn1c(=O)n(-c2ccc(C(C)(C)C#N)cc2)c2c3cc(-c4cnc5ccccc5c4)ccc3ncc21 [DACTOLISIB]"
test_target = "HL-60"
label = "class 1"

[[record]]
compound = "C=CC(=O)Nc1ccc(-n2c(=O)ccc3oc4ccc(-c5cccc([N+](=O)[O-])c5)cc4c32)cc1"
test_target = "HL-60"
label = "class 0"

[[record]]
compound = "C=CC(=O)Nc1ccc(-n2c(=O)ccc3oc4ccc(-c5cnn(C)c5)cc4c32)cc1"
test_target = "HL-60"
label = "class 0"

[[record]]
compound = "COc1ccc(-c2ccc3oc4ccc(=O)n(-c5ccc(NCC(=O)O)cc5)c4c3c2)cn1"
test_target = "HL-60"
label = "class 0"

[[record]]
compound = "COc1ccc(-c2ccc3oc4ccc(=O)n(-c5ccc(NS(C)(=O)=O)cc5)c4c3c2)cn1"
test_target = "HL-60"
label = "class 0"

[[record]]
compound = "CCN(CC)CC(=O)Nc1ccc(-n2c(=O)ccc3oc4ccc(-c5ccc(OC)nc5)cc4c32)cc1"
test_target = "HL-60"
label = "class 0"


* * *

molecular target: PI3-kinase p110-delta/p85-alpha (Homo sapiens) (UniProt P27986+O00329); experiment: Inhibition of recombinant human full length N-terminal His-tagged PI3K p110delta/p85alpha at 200 nM using lipid substrate after 60 mins by ADP-Glo assay relative to control; assay type: protein-complex assay
Active and inactive are the calls of the source. No cut-off for these calls is given here.
Observed property: inhibition

[[record]]
input_smiles = "C=CC(=O)Nc1ccc(-n2c(=O)ccc3oc4ccc(-c5cccnc5)cc4c32)cc1"
observed_property = "inhibition"
val = "45.8%"

[[record]]
input_smiles = "COc1ccc(-c2ccc3oc4ccc(=O)n(-c5ccc(NC(=O)CN6CCOCC6)cc5)c4c3c2)cn1"
observed_property = "inhibition"
val = "11.6%"

[[record]]
input_smiles = "COc1ccc(-c2ccc3oc4ccc(=O)n(-c5ccc(NC(=O)CN6CCN(C)CC6)cc5)c4c3c2)cn1"
observed_property = "inhibition"
val = "inactive"

[[record]]
input_smiles = "COc1ccc(-c2ccc3oc4ccc(=O)n(-c5ccc(NC(=O)CN(C)C)cc5)c4c3c2)cn1"
observed_property = "inhibition"
val = "inactive"

[[record]]
input_smiles = "C=CC(=O)Nc1ccc(-n2c(=O)ccc3oc4ccc(-c5cccc(N)c5)cc4c32)cc1"
observed_property = "inhibition"
val = "inactive"

[[record]]
input_smiles = "Cn1c(=O)n(-c2ccc(C(C)(C)C#N)cc2)c2c3cc(-c4cnc5ccccc5c4)ccc3ncc21"
observed_property = "inhibition"
val = "64.4%"

[[record]]
input_smiles = "COc1ccc(-c2ccc3oc4ccc(=O)n(-c5ccc(NC(=O)CN6CCNCC6)cc5)c4c3c2)cn1"
observed_property = "inhibition"
val = "inactive"

[[record]]
input_smiles = "COc1ccc(-c2ccc3oc4ccc(=O)n(-c5ccc(NC(=O)CN6CCCC6)cc5)c4c3c2)cn1"
observed_property = "inhibition"
val = "inactive"

[[record]]
input_smiles = "COc1ccc(-c2ccc3oc4ccc(=O)n(-c5ccc(NC(=O)CN6CCCCC6)cc5)c4c3c2)cn1"
observed_property = "inhibition"
val = "inactive"

[[record]]
input_smiles = "C=CC(=O)Nc1ccc(-n2c(=O)ccc3oc4ccc(-c5ccc(OC)nc5)cc4c32)cc1"
observed_property = "inhibition"
val = "inactive"

[[record]]
input_smiles = "C=CC(=O)Nc1ccc(-n2c(=O)ccc3oc4ccc(-c5ccc(O)cc5)cc4c32)cc1"
observed_property = "inhibition"
val = "4.2%"

[[record]]
input_smiles = "C=CC(=O)Nc1ccc(-n2c(=O)ccc3oc4ccc(-c5cnn(C)c5)cc4c32)cc1"
observed_property = "inhibition"
val = "4.8%"


* * *

molecular target: Phosphatidylinositol 4,5-bisphosphate 3-kinase catalytic subunit gamma isoform (Homo sapiens, UniProt P48736); experiment: Inhibition of recombinant human full length His-tagged PI3K p110gamma expressed in baculovirus expression system using lipid substrate after 60 mins by ADP-Glo assay
Sequence (P48736 whole entry, canonical isoform): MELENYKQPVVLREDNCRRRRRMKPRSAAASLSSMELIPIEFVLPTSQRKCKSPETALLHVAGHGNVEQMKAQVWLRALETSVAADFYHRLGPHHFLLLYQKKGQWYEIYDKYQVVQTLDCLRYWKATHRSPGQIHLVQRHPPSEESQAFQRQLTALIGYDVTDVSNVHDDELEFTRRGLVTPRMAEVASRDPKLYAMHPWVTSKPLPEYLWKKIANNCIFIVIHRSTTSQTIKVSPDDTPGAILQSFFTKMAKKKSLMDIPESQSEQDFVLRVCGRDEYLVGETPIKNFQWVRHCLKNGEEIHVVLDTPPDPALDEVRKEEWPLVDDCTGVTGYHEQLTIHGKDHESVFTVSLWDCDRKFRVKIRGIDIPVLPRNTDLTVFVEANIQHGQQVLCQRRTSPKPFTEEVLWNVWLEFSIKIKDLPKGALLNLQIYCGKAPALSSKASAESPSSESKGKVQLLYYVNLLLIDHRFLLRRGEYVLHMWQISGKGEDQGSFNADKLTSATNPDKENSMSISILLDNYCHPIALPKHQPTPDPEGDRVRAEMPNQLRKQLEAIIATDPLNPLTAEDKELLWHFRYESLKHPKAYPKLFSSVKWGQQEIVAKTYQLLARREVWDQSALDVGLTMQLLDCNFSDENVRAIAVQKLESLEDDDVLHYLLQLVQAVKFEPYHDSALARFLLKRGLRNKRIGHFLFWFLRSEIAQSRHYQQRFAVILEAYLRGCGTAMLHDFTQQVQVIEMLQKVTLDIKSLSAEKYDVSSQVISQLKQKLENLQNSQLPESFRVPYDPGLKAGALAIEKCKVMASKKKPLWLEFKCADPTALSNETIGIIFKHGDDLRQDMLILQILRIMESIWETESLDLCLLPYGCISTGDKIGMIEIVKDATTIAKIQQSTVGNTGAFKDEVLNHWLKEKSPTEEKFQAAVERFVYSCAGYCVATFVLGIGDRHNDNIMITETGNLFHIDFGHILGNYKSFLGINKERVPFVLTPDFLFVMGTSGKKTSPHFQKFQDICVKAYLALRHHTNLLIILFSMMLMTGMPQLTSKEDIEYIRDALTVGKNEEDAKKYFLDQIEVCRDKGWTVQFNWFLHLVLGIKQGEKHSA
Observed property: IC50 (nM)

[[record]]
input_smiles = "C=CC(=O)Nc1ccc(-n2c(=O)ccc3oc4ccc(-c5cccnc5)cc4c32)cc1"
observed_property = "IC50"
val = 684


* * *

target: Tyrosine-protein kinase BTK (Homo sapiens, UniProt Q06187); assay: Inhibition of recombinant full length human N-terminal His tagged BTK expressed in baculovirus infected Sf9 cells using poly (4:1 Glu, Tyr) as substrate after 60 mins by ADP-Glo assay
Sequence (Q06187 whole entry): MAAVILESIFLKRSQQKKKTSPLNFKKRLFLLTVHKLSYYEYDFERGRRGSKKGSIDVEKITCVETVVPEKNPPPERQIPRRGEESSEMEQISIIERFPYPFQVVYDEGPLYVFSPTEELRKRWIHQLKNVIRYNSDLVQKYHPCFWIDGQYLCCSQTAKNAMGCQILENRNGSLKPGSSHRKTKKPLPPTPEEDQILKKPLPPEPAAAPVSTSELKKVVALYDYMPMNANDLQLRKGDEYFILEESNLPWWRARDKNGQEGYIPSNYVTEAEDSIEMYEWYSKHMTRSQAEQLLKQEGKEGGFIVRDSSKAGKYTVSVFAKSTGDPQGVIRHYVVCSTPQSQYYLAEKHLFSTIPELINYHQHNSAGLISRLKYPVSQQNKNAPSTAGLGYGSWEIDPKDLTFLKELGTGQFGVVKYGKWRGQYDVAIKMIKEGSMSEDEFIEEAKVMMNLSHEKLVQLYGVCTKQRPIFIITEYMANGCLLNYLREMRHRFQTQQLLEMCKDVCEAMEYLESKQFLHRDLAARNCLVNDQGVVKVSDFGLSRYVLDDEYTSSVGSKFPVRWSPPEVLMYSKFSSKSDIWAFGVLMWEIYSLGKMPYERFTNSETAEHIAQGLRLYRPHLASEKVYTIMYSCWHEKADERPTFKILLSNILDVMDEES
Observed property: IC50 (nM)

[[record]]
input_smiles = "COc1ccc(-c2ccc3oc4ccc(=O)n(-c5ccc(NC(=O)CN6CCOCC6)cc5)c4c3c2)cn1"
test_target = "Tyrosine-protein kinase BTK (Homo sapiens, UniProt Q06187)"
val = 200

[[record]]
input_smiles = "C=CC(=O)Nc1ccc(-n2c(=O)ccc3oc4ccc(-c5cccnc5)cc4c32)cc1"
test_target = "Tyrosine-protein kinase BTK (Homo sapiens, UniProt Q06187)"
val = 136

[[record]]
input_smiles = "COc1ccc(-c2ccc3oc4ccc(=O)n(-c5ccc(NC(=O)CN6CCN(C)CC6)cc5)c4c3c2)cn1"
test_target = "Tyrosine-protein kinase BTK (Homo sapiens, UniProt Q06187)"
val = 139

[[record]]
input_smiles = "COc1ccc(-c2ccc3oc4ccc(=O)n(-c5ccc(NC(=O)CN6CCCCC6)cc5)c4c3c2)cn1"
test_target = "Tyrosine-protein kinase BTK (Homo sapiens, UniProt Q06187)"
val = 106

[[record]]
input_smiles = "COc1ccc(-c2ccc3oc4ccc(=O)n(-c5ccc(NC(=O)CN6CCCC6)cc5)c4c3c2)cn1"
test_target = "Tyrosine-protein kinase BTK (Homo sapiens, UniProt Q06187)"
val = 183

[[record]]
input_smiles = "COc1ccc(-c2ccc3oc4ccc(=O)n(-c5ccc(NC(=O)CN(C)C)cc5)c4c3c2)cn1"
test_target = "Tyrosine-protein kinase BTK (Homo sapiens, UniProt Q06187)"
val = 237

[[record]]
input_smiles = "C=CC(=O)Nc1ccc(-n2c(=O)ccc3oc4ccc(-c5cnn(C)c5)cc4c32)cc1"
test_target = "Tyrosine-protein kinase BTK (Homo sapiens, UniProt Q06187)"
val = 217

